Attribution: paper PMC9743094

Kindly supply the reported MIC P. aeruginosa (ATCC 27853) values for the records listed here.
System: P. aeruginosa (ATCC 27853)
Format: cell-based
Settings: ATCC 27853
Starred links: 1 amine or outer side, 2 acyl side, 3 side chain; linkers in the order of their positions; H or OH if unused. Positions of bridges follow the written chain, without caps; N, C: chain ends. Non-standard residues stand in square brackets, D forms with d. Residues, ends and D or L forms follow the SMILES beside them. *: point of attachment. Phenylthio(4-OPh) = c1ccc(Oc2ccc(S*)cc2)cc1; X2 = CC(C)CCCCC[C@@H](N[*:1])C(=O)[*:2]; Dab = NCC[C@H](N)C(=O)O; X1 = CC(C)CCCCS*
Numbers only; they are read as µg/mL.

**Q:** What value of MIC P. aeruginosa (ATCC 27853) has been reported for the following compound? CC(C)CCCCSSC[C@H](N)C(=O)N[C@H](C(=O)N[C@@H](CCN)C(=O)N[C@H]1CCNC(=O)[C@H]([C@@H](C)O)NC(=O)[C@H](CCN)NC(=O)[C@H](CCN)NC(=O)[C@H](CC(C)C)NC(=O)[C@@H](Cc2ccccc2)NC(=O)[C@H](CCN)NC1=O)[C@@H](C)O [Compound 20a] (H-C(X1)T[Dab][Dab][Dab][dF]L[Dab][Dab]T; lactam 4-C)
**A:** 2

**Q:** Fill in the blank: the reported MIC P. aeruginosa (ATCC 27853) of CC(C)C[C@@H]1NC(=O)[C@@H](Cc2ccccc2)NC(=O)[C@H](CCN)NC(=O)[C@@H](NC(=O)[C@H](CCN)NC(=O)[C@@H](NC(=O)[C@@H](N)CSSc2ccc(Oc3ccccc3)cc2)[C@@H](C)O)CCNC(=O)[C@H]([C@@H](C)O)NC(=O)[C@H](CCN)NC(=O)[C@H](CCN)NC1=O [Compound 30a] (H-C(Phenylthio(4-OPh))T[Dab][Dab][Dab][dF]L[Dab][Dab]T; lactam 4-C) is ____.
**A:** 4

**Q:** Give its MIC P. aeruginosa (ATCC 27853) value. Item: CC(C)CCCCC[C@@H](N)C(=O)N[C@H](C(=O)N[C@@H](CCN)C(=O)N[C@H]1CCNC(=O)[C@H]([C@@H](C)O)NC(=O)[C@H](CCN)NC(=O)[C@H](CCN)NC(=O)[C@H](CC(C)C)NC(=O)[C@@H](Cc2ccccc2)NC(=O)[C@H](CCN)NC1=O)[C@@H](C)O [Compound 45] (H-[X2]T[Dab][Dab][Dab][dF]L[Dab][Dab]T; lactam 4-C)
**A:** 1
